System: HEK293
Assay: Cytotoxic Profiling of Annotated Libraries Using Quantitative High-Throughput Screening (AID 1296008); further: nearly all actives have a fitted effect of over 60% in size; further: potency means the concentration at half of the fitted maximal effect
Conditions: Five cell lines viability, CellTiter-Glo ATP luminescence, 48-72 h
Method: Cell-based phenotypic screening is a commonly used approach to discover biological pathways, novel drug targets, chemical probes and high-quality hit-to-lead molecules. […] A pintool (Kalypsys) was used to transfer 23 nL of compound solution to the 1536-well assay plates. […] Plates were left at room temperature for 10 min before imaging the ATP-coupled luminescence using a ViewLux microplate imager (PerkinElmer, Waltham, MA).
Results filed as inconclusive are left out. The source made the active and inactive calls. The call rests on the fitted dose curve; in most records, active means well fitted inhibition curve with a large enough effect; inconclusive means small, poorly fitted or top-dose-only effect; inactive means flat fitted curve, though single readings scatter.
Value Kind: Potency

For orientation, consider the following solved cases.
- c1ccc(-c2csc(N3CCOCC3)n2)cc1: inactive
- COc1ccc2[nH]c3c(-c4cccc5ccccc45)nccc3c2c1: 1.3 µM (active)
- CC(C)c1c2cc(-c3ccnc(NC4CCC(NC5CCOCC5)CC4)n3)ccc2nn1C (configuration not stated): 0.13 µM (active)
- COc1cc(Nc2nc3c(s2)CCCC3c2ccc(F)cc2)ccc1-n1cnc(C)c1 (configuration not stated): 11.6 µM (active)

Alright, here's another compound for you.
IN: I'd like to know its Potency. The compound in question is CC(O)/C=C/C1(O)C(C)C(O[C@@H]2O[C@H](CO)[C@@H](O)[C@H](O)[C@H]2O)C(O)CC1(C)C (some centres not stated)
OUT: inactive
